Where do the numbers come from? From paper PMC10567728.

Target: uPAR•uPA interaction (Homo sapiens)
Construct: Recombinant human uPAR^1–283 was expressed
Sequence (Q03405 23-305): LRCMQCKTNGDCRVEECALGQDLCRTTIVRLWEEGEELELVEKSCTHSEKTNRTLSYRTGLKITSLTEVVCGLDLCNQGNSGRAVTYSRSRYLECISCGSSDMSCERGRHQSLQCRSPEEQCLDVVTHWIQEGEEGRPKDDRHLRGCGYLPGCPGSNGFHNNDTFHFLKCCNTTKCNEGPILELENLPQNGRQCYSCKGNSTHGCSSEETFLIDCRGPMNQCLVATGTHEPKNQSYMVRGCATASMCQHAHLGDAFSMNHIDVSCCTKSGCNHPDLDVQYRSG
Experiment: SPR competition assay of the uPAR•uPA interaction
Conditions: competition of uPAR•uPA interaction, 2 nM uPAR, 20 °C, n = 3
Positions of bridges follow the written chain, without caps; N, C: chain ends. Non-standard residues stand in square brackets, D forms with d. Residues, ends and D or L forms follow the SMILES beside them. *: point of attachment. DOTA = O=C(O)CN1CCN(CC(=O)O)CCN(CC(=O)*)CCN(CC(=O)O)CC1; Cha = N[C@@H](CC1CCCCC1)C(=O)O
I'd be grateful if you could share measured IC50 for these entries.
Number only, in nM; omit the unit.

Query :: Observed IC50 on uPAR•uPA interaction (Homo sapiens) for CC(C)C[C@H](NC(=O)[C@H](Cc1ccc(O)cc1)NC(=O)[C@@H](CCCCN)NC(=O)[C@@H](CO)NC(=O)[C@H](Cc1ccccc1)NC(=O)[C@H](CC1CCCCC1)NC(=O)[C@@H](N)CC(=O)O)C(=O)N[C@@H](Cc1c[nH]c2ccccc12)C(=O)N[C@@H](CO)C(=O)O [compound 2] (H-D[Cha]F[dS][dK]YLWS-OH; N-terminus assumed) , please.
Result :: 50.9

Query :: Observed IC50 on uPAR•uPA interaction (Homo sapiens) for CC(C)C[C@H](NC(=O)[C@H](Cc1ccc(O)cc1)NC(=O)[C@@H](CCCNC(=N)N)NC(=O)[C@@H](CO)NC(=O)[C@H](Cc1ccccc1)NC(=O)[C@H](CC1CCCCC1)NC(=O)[C@H](CC(=O)O)NC(=O)CN1CCN(CC(=O)O)CCN(CC(=O)O)CCN(CC(=O)O)CC1)C(=O)N[C@@H](Cc1c[nH]c2ccccc12)C(=O)N[C@@H](CO)C(N)=O , please.
Result :: 8.2

Query :: Observed IC50 on uPAR•uPA interaction (Homo sapiens) for CC(C)C[C@H](NC(=O)[C@H](Cc1ccc(O)cc1)NC(=O)[C@@H](CCCNC(=N)N)NC(=O)[C@@H](CO)NC(=O)[C@H](Cc1ccccc1)NC(=O)[C@H](CC1CCCCC1)NC(=O)[C@H](CC(=O)O)NC(=O)CNC(=O)CNC(=O)[C@@H](CO)NC(=O)CNC(=O)[C@H](CCC(=O)O)NC(=O)[C@H](CCC(=O)O)NC(=O)CN1CCN(CC(=O)O)CCN(CC(=O)O)CCN(CC(=O)O)CC1)C(=O)N[C@@H](Cc1c[nH]c2ccccc12)C(=O)N[C@@H](CO)C(N)=O [10b] ({DOTA}-EEG[dS]GGD[Cha]F[dS][dR]YLWS-NH2) , please.
Result :: 4.8

Query :: Observed IC50 on uPAR•uPA interaction (Homo sapiens) for CC(C)C[C@H](NC(=O)[C@H](Cc1ccc(O)cc1)NC(=O)[C@@H](CCCNC(=N)N)NC(=O)[C@@H](CO)NC(=O)[C@H](Cc1ccccc1)NC(=O)[C@H](CC1CCCCC1)NC(=O)[C@@H](N)CC(=O)O)C(=O)N[C@@H](Cc1c[nH]c2ccccc12)C(=O)N[C@@H](CO)C(N)=O , please.
Result :: 2.1

Query :: Observed IC50 on uPAR•uPA interaction (Homo sapiens) for CC(C)C[C@@H]1NC(=O)[C@H](Cc2ccc(O)cc2)NC(=O)[C@H](NC(=O)[C@@H](CO)NC(=O)[C@H](Cc2ccccc2)NC(=O)[C@H](CC2CCCCC2)NC(=O)[C@H](CC(=O)O)NC(=O)CNC(=O)CNC(=O)[C@@H](CO)NC(=O)CNC(=O)[C@H](CCC(=O)O)NC(=O)[C@H](CCC(=O)O)NC(=O)CN2CCN(CC(=O)O)CCN(CC(=O)O)CCN(CC(=O)O)CC2)CSSC[C@@H](C(N)=O)NC(=O)[C@H](Cc2c[nH]c3ccccc23)NC1=O [11b] ({DOTA}-EEG[dS]GGD[Cha]F[dS][dC]YLWC-NH2; disulfide 11-15) , please.
Result :: 7.7

Query :: Observed IC50 on uPAR•uPA interaction (Homo sapiens) for CC(C)C[C@@H]1NC(=O)[C@H](Cc2ccc(O)cc2)NC(=O)[C@H](NC(=O)[C@@H](CO)NC(=O)[C@H](Cc2ccccc2)NC(=O)[C@H](CC2CCCCC2)NC(=O)[C@H](CC(=O)O)NC(=O)CNC(=O)CNC(=O)[C@@H](CO)NC(=O)CNC(=O)[C@H](CCC(=O)O)NC(=O)[C@H](CCC(=O)O)NC(=O)CN2CCN(CC(=O)O)CCN(CC(=O)O)CCN(CC(=O)O)CC2)CSSC[C@@H](C(=O)O)NC(=O)[C@H](Cc2c[nH]c3ccccc23)NC1=O [6b] ({DOTA}-EEG[dS]GGD[Cha]F[dS][dC]YLWC-OH; disulfide 11-15) , please.
Result :: 15.8

Query :: Observed IC50 on uPAR•uPA interaction (Homo sapiens) for CC(C)C[C@@H]1NC(=O)[C@H](Cc2ccc(O)cc2)NC(=O)[C@H](NC(=O)[C@@H](CO)NC(=O)[C@H](Cc2ccccc2)NC(=O)[C@H](CC2CCCCC2)NC(=O)[C@@H](N)CC(=O)O)CSSC[C@@H](C(N)=O)NC(=O)[C@H](Cc2c[nH]c3ccccc23)NC1=O [compound 9] (H-D[Cha]F[dS][dC]YLWC-NH2; disulfide 5-9; N-terminus assumed) , please.
Result :: 8.9

Query :: Observed IC50 on uPAR•uPA interaction (Homo sapiens) for CC(C)C[C@@H]1NC(=O)[C@H](Cc2ccc(O)cc2)NC(=O)[C@H](NC(=O)[C@@H](CO)NC(=O)[C@H](Cc2ccccc2)NC(=O)[C@H](CC2CCCCC2)NC(=O)[C@H](CC(=O)O)NC(=O)CN2CCN(CC(=O)O)CCN(CC(=O)O)CCN(CC(=O)O)CC2)CSSC[C@@H](C(=O)O)NC(=O)[C@H](Cc2c[nH]c3ccccc23)NC1=O [3b] ({DOTA}-D[Cha]F[dS][dC]YLWC-OH; disulfide 5-9) , please.
Result :: 10.9

Query :: Observed IC50 on uPAR•uPA interaction (Homo sapiens) for CC(C)C[C@H](NC(=O)[C@H](Cc1ccc(O)cc1)NC(=O)[C@@H](CCCNC(=N)N)NC(=O)[C@@H](CO)NC(=O)[C@H](Cc1ccccc1)NC(=O)[C@H](CC1CCCCC1)NC(=O)[C@H](CC(=O)O)NC(=O)CNC(=O)CNC(=O)[C@@H](CO)NC(=O)CNC(=O)[C@H](CCC(=O)O)NC(=O)[C@H](CCC(=O)O)NC(=O)CN1CCN(CC(=O)O)CCN(CC(=O)O)CCN(CC(=O)O)CC1)C(=O)N[C@@H](Cc1c[nH]c2ccccc12)C(=O)N[C@@H](CO)C(=O)O [4b] ({DOTA}-EEG[dS]GGD[Cha]F[dS][dR]YLWS-OH) , please.
Result :: 32.2

Query :: Observed IC50 on uPAR•uPA interaction (Homo sapiens) for CC(C)C[C@H](NC(=O)[C@H](Cc1ccc(O)cc1)NC(=O)[C@@H](CCCNC(=N)N)NC(=O)[C@@H](CO)NC(=O)[C@H](Cc1ccccc1)NC(=O)[C@H](CC1CCCCC1)NC(=O)[C@H](CC(=O)O)NC(=O)CN1CCN(CC(=O)O)CCN(CC(=O)O)CCN(CC(=O)O)CC1)C(=O)N[C@@H](Cc1c[nH]c2ccccc12)C(=O)N[C@@H](CO)C(=O)O , please.
Result :: 48
